- System: SEM cells
- ASSAY PROTOCOL: cell viability relative to DMSO control; higher = less cytotoxic
- PROTOCOL CONDITIONS: RPMI 5 mM glucose + 10% dialyzed FBS; 48 h; 0.569 µM
cell viability values, listed per item
Answer in %, number only, no unit symbol.

>>> obs_value("C[C@H](Cc1ccc(O)c(O)c1)[C@@H](C)Cc1ccc(O)c(O)c1")
36.6
>>> obs_value("CN1CCC(CC1)=C2C3=C(C=CC=C3)\\C=C/C4=C2C=CC=C4")
130

// switching to the query compound
Using known records, supply cell viability for `N#CC[C@H](C1CCCC1)n1cc(-c2ncnc3[nH]ccc23)cn1`
96.8

* * *

Entries and their measured AUC of viability dose-response curve follow.
- Tested on: P12-Ichikawa
- ASSAY PROTOCOL: AUC of viability dose-response curve (% viability x log10 dose units); higher = less sensitive
- PROTOCOL CONDITIONS: RPMI 5 mM glucose + 10% FBS; 48 h
Lab note: record just the number, no unit beside it.

>>> obs_value("Cc1ccc(-c2cc(C(F)(F)F)nn2-c2ccc([S+](N)(=O)[O-])cc2)cc1")
463
>>> obs_value("CN1CCN(CCCN2c3ccccc3Sc3ccc(Cl)cc32)CC1.O=C(O)/C=C\\C(=O)O.O=C(O)/C=C\\C(=O)O")
421
>>> obs_value("CCCCC[C@H](O)/C=C/[C@H]1[C@H](O)CC(=O)[C@@H]1CCCCCCC(=O)O")
445

Report the value of AUC of viability dose-response curve obtained on P12-Ichikawa for `Cc1c(C(=O)c2cccc3ccccc23)c2cccc3c2n1[C@H](CN1CCOCC1)CO3` .
366

Lab note: P12-Ichikawa assay, enter AUC of viability dose-response curve for `CCCCCCCCCCCC/1=C(O)/C(=O)/C=C(O)\C1=O` here
357

Lab note: record AUC of viability dose-response curve of `N#C/C(=C1/Nc2ccccc2S1)c1ccnc(OCc2ccc(CN3CCOCC3)cc2)n1` tested on P12-Ichikawa.
422

Fetch value of AUC of viability dose-response curve on P12-Ichikawa for `CN(C)[C@@H](CCOc1cccc2ccccc12)c1ccccc1` .
433

State AUC of viability dose-response curve (P12-Ichikawa) of `CCOC(=O)N[C@@H]1CC[C@@H]2[C@@H](C1)C[C@H]1C(=O)O[C@H](C)[C@H]1[C@H]2/C=C/c1ccc(-c2cccc(F)c2)cn1` .
464

* * *

- Tested on: NOMO1
- ASSAY PROTOCOL: AUC of viability dose-response curve (% viability x log10 dose units); higher = less sensitive
- PROTOCOL CONDITIONS: RPMI 5 mM glucose + 10% FBS; 48 h
EXPERIMENTAL READOUT: AUC of viability dose-response curve
Lab note: record the figure alone, no unit after it.

>>> obs_value("CN(C(Cc1ccc(O[S+](=O)([O-])c2cccc3cnccc23)cc1)C(=O)N1CCN(c2ccccc2)CC1)[S+](=O)([O-])c1cccc2cnccc12 (stereo not drawn)")
425
>>> obs_value("COc1ccc(C2(C#N)CCC(C(=O)O)CC2)cc1OC1CCCC1 (stereo not drawn)")
434
>>> obs_value("CN(C)CCOc1ccc(/C(=C(/CCCl)c2ccccc2)c2ccccc2)cc1")
437
>>> obs_value("CCOCC(O)COc1ccc(NC(=O)CC[S+](C)C)cc1 (stereo not drawn)")
411
>>> obs_value("OC[C@H]1OC(OC2=CC3=C(C(=C2)O)C(=O)\\C(=C/O3)C4=CC=C(O)C=C4)[C@H](O)[C@@H](O)[C@@H]1O (stereo partly drawn)")
407

Give NOMO1 AUC of viability dose-response curve for the following molecule: `CS[C@H]1SC[C@@H]2C(=O)N(C)[C@H](C(C)C)C(=O)OC[C@H](NC(=O)c3cnc4ccccc4n3)C(=O)N[C@H](C)C(=O)N(C)[C@H]1C(=O)N(C)[C@H](C(C)C)C(=O)OC[C@H](NC(=O)c1cnc3ccccc3n1)C(=O)N[C@H](C)C(=O)N2C`
142

State the measured AUC of viability dose-response curve (NOMO1) of CC(S)C(=O)NCC(=O)O (stereo not drawn)
440

Supply AUC of viability dose-response curve measured with NOMO1 for `C[C@]\12CCC(=O)\C=C1[C@@H]3C[C@@H]3[C@@H]4[C@@H]2CC[C@@]5(C)[C@H]4[C@@H]6C[C@@H]6[C@@]57CCC(=O)O7` .
477

Supply AUC of viability dose-response curve measured with NOMO1 for `C=CC(=O)Nc1ccc2ncnc(Nc3ccc(OCc4cccc(F)c4)c(Cl)c3)c2c1` .
368

* * *

# reported cell viability; entries follow
- Tested on: SEM cells
- ASSAY PROTOCOL: cell viability relative to DMSO control; higher = less cytotoxic
- PROTOCOL CONDITIONS: RPMI 5 mM glucose + 10% FBS; 48 h; 0.00234 µM
State just the number; it will be interpreted in %.

The following compounds have reported results that may help.
>>> obs_value("Cc1ccc(/C=N/NC(=O)c2ccccc2Oc2ccccc2)o1")
98.2
>>> obs_value("CN(C)CCc1c[nH]c2ccc(C[S+](=O)([O-])N3CCCC3)cc12")
93.4

Proceeding to the next compound to report its cell viability.
Answer with the recorded cell viability for the compound listed here: `CN1CCC(CC1)=C2C3=C(C=CC=C3)\C=C/C4=C2C=CC=C4`
121

* * *

- System: NOMO1
- ASSAY PROTOCOL: cell viability relative to DMSO control; higher = less cytotoxic
- PROTOCOL CONDITIONS: RPMI 5 mM glucose + 10% FBS; 48 h; 0.00702 µM
In this section, each of the compounds is paired with its reported cell viability.
Use % as the unit, but write only the number.

// worked examples, cell viability included
>>> obs_value("CCCCCN(CCC12CC3CC(CC(C3)C1)C2)C(=O)NCCCc1ccncc1")
107
>>> obs_value("O=C1CCCC(=O)C1C(=O)c1ccc(C(F)(F)F)cc1[N+](=O)[O-]")
99.2
>>> obs_value("N=C(N)NC(=N)N1CCOCC1")
115

For the compound `C=CC(=O)Nc1ccc2ncnc(Nc3ccc(OCc4cccc(F)c4)c(Cl)c3)c2c1` , give its measured cell viability value.
114

Given the compound `CC(C)n1cnc2c(NCCc3ccc(O)cc3)nc(-c3csc4ccccc34)nc21` , write its reported cell viability.
104

Let me know recorded cell viability for `CN1CCN(CCCN2c3ccccc3Sc3ccc(Cl)cc32)CC1.O=C(O)/C=C\C(=O)O.O=C(O)/C=C\C(=O)O` , thanks.
112

Please indicate cell viability recorded for `Nc1ccn([C@H]2CS[C@@H](CO)O2)c(=O)n1`
144

State its cell viability for this compound: CCC(C1CCC(C)C(O1)C(C)C(O)C(C)C(=O)C(CC)C2OC\3(O[C@]4(CC[C@@](C)(O4)C5CC[C@@](O)(CC)C(C)O5)C(O)\C=C3)C(C)CC2C)C([O-])=O (some centres undefined)
99.9

Provide cell viability value for the following compound: CCN(CC)CCCC(C)Nc1nc(C)cc(Nc2ccc3nc(C)cc(N)c3c2)n1 (centres undefined)
110

* * *

- Tested on: SEM cells
- ASSAY PROTOCOL: cell viability relative to DMSO control; higher = less cytotoxic
- PROTOCOL CONDITIONS: RPMI 5 mM glucose + 10% dialyzed FBS; 48 h; 0.569 µM
Recorded cell viability values for a group of molecules are listed next.
Write the value in % as a bare number.

Take a look at these entries with their results.
>>> obs_value("Cc1ccc([S+](=O)([O-])Nc2cc(Cl)ccc2C(=O)Nc2nc(-c3ccccc3)cs2)cc1")
31.8
>>> obs_value("Oc1c(Cl)cc(Cl)c2cccnc12")
101
>>> obs_value("Oc1ccc([C@@H]2Oc3ccc(O)cc3[C@@H]3CCC[C@@H]32)cc1")
102
>>> obs_value("CCOC(=O)N[C@@H]1CC[C@@H]2[C@@H](C1)C[C@H]1C(=O)O[C@H](C)[C@H]1[C@H]2/C=C/c1ccc(-c2cccc(F)c2)cn1")
108
>>> obs_value("Cc1cccc(-c2[nH]c(C(C)(C)C)nc2-c2ccc3c(c2)OCO3)n1")
107

Read the next record carefully.
Respond only with cell viability recorded for `Cc1c(C(=O)c2cccc3ccccc23)c2cccc3c2n1[C@H](CN1CCOCC1)CO3`
92.3

* * *

- Test system: SEM cells
- ASSAY PROTOCOL: cell viability relative to DMSO control; higher = less cytotoxic
- PROTOCOL CONDITIONS: RPMI 5 mM glucose + 10% dialyzed FBS; 48 h; 5.12 µM
EXPERIMENTAL READOUT: cell viability (%)
Number in %, nothing else.

>>> obs_value("COc1ccc(C2(C#N)CCC(C(=O)O)CC2)cc1OC1CCCC1 (stereo unspecified)")
90.4

Now turn to the next compound.
Provide cell viability value for the following compound: `Cc1ccc(/C=N/NC(=O)c2ccccc2Oc2ccccc2)o1`
66.5
